- Study Target: TAAR1 (Mus musculus, UniProt Q923Y8)
- Construct: expressed in transfected cells; host or cells: HEK293 cells (ATCC CRL-1573), stably transfected with pIRESneo2 expression plasmid; membranes prepared
- Sequence (Q923Y8 whole entry): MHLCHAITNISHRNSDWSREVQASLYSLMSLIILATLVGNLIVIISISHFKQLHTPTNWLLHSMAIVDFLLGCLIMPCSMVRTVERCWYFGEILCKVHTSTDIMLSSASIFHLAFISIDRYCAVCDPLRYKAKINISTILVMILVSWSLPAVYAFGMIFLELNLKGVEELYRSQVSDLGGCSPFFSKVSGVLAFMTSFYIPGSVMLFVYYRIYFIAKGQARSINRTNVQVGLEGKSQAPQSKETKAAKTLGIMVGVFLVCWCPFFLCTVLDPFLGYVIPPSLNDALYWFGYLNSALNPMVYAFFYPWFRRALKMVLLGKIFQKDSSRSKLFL
- Assay Info: Radioligand binding assay on membranes of HEK293 cells stably expressing TAAR1
- Conditions Used: mouse TAAR1; radioligand [3H]-rac-2-(1,2,3,4-tetrahydro-1-naphthyl)-2-imidazoline, 4° C., 30 min
Readout Label: Ki (µM)

| Compound | Ki [µM] |
| --- | --- |
| C1=NC(CCc2ccccc2)CN1 (racemic) | 0.06 |
| CCN(CC1CN=CN1)c1ccccc1 (racemic) | 0.253 |

(I) CN(CC1CN=CN1)c1ccccc1 (stereo not drawn)
(II) C1=NC(Cc2cccc3ccccc23)CN1 (racemic)
(III) Clc1ccc(CCC2CNC=N2)cc1 (racemic)
(IV) CCc1cccc2cccc(CC3CNC=N3)c12 (racemic)
Ask: Order these by Ki, descending, and give the full ranking. In plain terms: list the labels in the order you were asked to.
Result: III, I, IV, II
(III: 0.327 µM, I: 0.182 µM, IV: 0.078 µM, II: 0.005 µM)
